Quick list: inhibition at 50 µM per entry.
test system: proteolytic cleavage of PARP (poly ADP-ribose polymerase) in Hela cells; assay: Inhibition of staurosporine-induced PARP cleavage in live Hela cells; format: cell-based; settings: Homo sapiens, HeLa, 4 h, read-out: % inhibition of PARP cleavage at 50 uM compound, Hela cells, staurosporine 4 hours, 50 uM compound

Here are 5 compounds together with their reported answers.
[
  {
    "compound": "CS(=O)(=O)/C=C/[C@@H](N)CC(=O)O.Cc1ccc(S(=O)(=O)O)cc1",
    "assayResult": "15%"
  },
  {
    "compound": "CC(C)[C@H](NC(=O)[C@@H](NC(=O)[C@H](CC(=O)O)NC(=O)OCc1ccccc1)c1ccccc1)C(=O)N[C@H](/C=C/S(C)(=O)=O)CC(=O)O",
    "assayResult": "> 50%"
  },
  {
    "compound": "CC(C)[C@H](NC(=O)[C@@H](NC(=O)[C@H](CC(=O)O)NC(=O)OCc1ccccc1)c1ccccc1)C(=O)N[C@H](/C=C/S(=O)(=O)c1ccccc1)CC(=O)O",
    "assayResult": "20%"
  },
  {
    "compound": "CC(C)[C@H](NC(=O)[C@H](CCC(=O)O)NC(=O)[C@H](Cc1ccc(O)cc1)NC(=O)OCc1ccccc1)C(=O)N[C@H](/C=C/S(C)(=O)=O)CC(=O)O",
    "assayResult": "15%"
  },
  {
    "compound": "CC(C)[C@H](NC(=O)C(Cc1ccc2ccccc2n1)NC(=O)[C@H](CC(=O)O)NC(=O)OCc1ccccc1)C(=O)N[C@H](/C=C/S(C)(=O)=O)CC(=O)O (stereo partly drawn)",
    "assayResult": "20%"
  }
]

In: Please report inhibition at 50 µM with proteolytic cleavage of PARP (poly ADP-ribose polymerase) in Hela cells for item Cc1ccc(S(=O)(=O)N[C@@H](Cc2ccc3ccccc3n2)C(=O)N[C@H](C(=O)N[C@H](/C=C(\Cl)S(C)(=O)=O)CC(=O)O)C(C)C)cc1 .
Out: 0%
